System: IGROV-1
assay details: NCI tumour cell line growth inhibition, 48 h
Active and inactive are the calls of the source. No stated cut-off is given here; in the data, active = GI50 up to about 1.1 µM and inactive = higher.
Quick list: GI50 per entry.

compound=O=C(OCC(Cl)(Cl)Cl)N1CC[C@@H](C2CCCCC2)C1 result="75.5 µM (inactive)"

Query: I am curious: what GI50 value has been reported for Cc1ccc(NC(=O)c2cccc(OP(=O)(Nc3ccc(C)cc3)Nc3ccc(C)cc3)c2)cc1 ?
Result: 15.1 µM (inactive)

Query: What does the data say about its GI50? Entry: O=C1C2=C(c3ccccc31)C(c1ccccc1Cl)N1C(=O)CSC1=N2 (stereo not drawn)
Result: > 100 µM (inactive)

Query: Could you tell me which GI50 is on file for O=C(O)C1OC(n2cc(F)c(=O)[nH]c2=O)CC1O (stereo not drawn) ?
Result: > 100 µM (inactive)

Query: Consider the compound C[C@H]1S[C@H](c2c(Cl)cccc2Cl)N2Cc3ccccc3N=C12 and give its measured GI50.
Result: 12.1 µM (inactive)

Query: Requested read-out: GI50. Entry: CC#COS(=O)(=O)c1ccc(C)cc1
Result: > 100 µM (inactive)

Query: May I ask what GI50 has been recorded for CCCCC(=O)N/S(=N/C(=O)c1ccccc1)C(Cl)(Cl)Cl (stereo not drawn) ?
Result: > 100 µM (inactive)

Query: Give the measured GI50 of Cc1ccc(C2=Nn3c(nc4sc5c(c4c3=O)CCCC5)SC2)cc1 .
Result: > 100 µM (inactive)

Query: Reported GI50, compound CC(=O)OCC1OC(n2c(=S)n(-c3ccccc3)c(=O)c3cc(Br)ccc32)C(OC(C)=O)C1OC(C)=O (stereo not drawn) : ____
Result: > 100 µM (inactive)

Query: Request the reported GI50 associated with O=C(N/N=C1\CCc2ccccc21)N/N=C1\CCc2ccccc21
Result: > 100 µM (inactive)
